Values were extracted from PubChem BioAssay (NCI).

# System: UACC-62 melanoma
# experiment: NCI tumour cell line growth inhibition, 48 h
quantity-name: TGI

{"columns": ["compound", "quantity-name", "result"],
 "data": [
  ["CCOC(=O)c1nc2cc(C(F)(F)F)ccc2nc1Nc1ccc(OC)c(OC)c1", "TGI", "> 100 µM"]
]}

Entry under review: Clc1ccc(N2CCN(CCCN3CCN(c4cccc(Cl)c4)CC3)CC2)cc1 . Reported TGI?
11.3 µM

Which TGI reading was recorded for the compound CC#CC(OCC)(OCC)OCC ?
> 100 µM

Query: TGI; subject: Cc1ccccc1OCC(COC(=O)Nc1ccccc1)OC(=O)Nc1ccccc1 (configuration not stated)
> 100 µM

Quick check: TGI of CC1C2C=CC1C(c1c3ccc(=O)c(O)c-3oc3c(O)c(O)ccc13)C2C(=O)O (configuration not stated) ?
> 100 µM

Please give the measured TGI for this compound: O=C(CCN1CCCCC1)Nc1ccc2sc3ccccc3c(=O)c2n1
30.1 µM

Find the recorded TGI belonging to O=CC1C(Cl)=Nc2nc3ccccc3n2C1c1ccc([N+](=O)[O-])cc1 (configuration not stated) and report it.
35.6 µM

Using the record for COc1ccc(N2C(=O)C3c4[nH]c5ccc(C)cc5c4C4CCC(c5ccccc5)CC4C3C2=O)cc1 (configuration not stated) , report its TGI.
> 79.5 µM

====

# Test system: A549 NSCLC
# experiment: NCI tumour cell line growth inhibition, 48 h
Where a SMILES comes first, the peptide text is derived from it. [ ]: non-standard residue; d: D form. The star is where a group is joined. Phe(4-NO2) = N[CH](Cc1ccc([N+](=O)[O-])cc1)C(=O)O; Boc = CC(C)(C)OC(=O)*; OtBu = CC(C)(C)O*
Below is a list of entries, each paired with its recorded TGI value.

The cases that follow already have their TGI on record.
{"columns": ["compound", "result"],
 "data": [
  ["COc1cc(-c2cc(/C=C/C(=O)c3ccc(N)cc3)[nH]n2)cc(OC)c1OC", "7.02 µM"],
  ["CN(C)C(=O)Nc1c([N+](=O)[O-])cc(C(F)(F)F)cc1[N+](=O)[O-]", "> 100 µM"],
  ["O=C(c1ccc(Cl)c(Cl)c1)N(Cc1cccnc1)C(=S)N(Cc1cccnc1)C(=O)c1ccc(Cl)c(Cl)c1", "> 100 µM"],
  ["C=C1C[C@@H](O)[C@@H](Br)C(C)(C)[C@@]12C=CC(O)(CBr)CC2 (stereo partly specified)", "> 100 µM"],
  ["CC(=O)NC(CCC(=O)OC(C)(C)C)C(=O)NC(CCC(=O)OC(C)(C)C)C(=O)NC(Cc1ccc([N+](=O)[O-])cc1)C(=O)NC(CCCCNC(=O)OC(C)(C)C)C(=O)NC(CCCCNC(=O)OC(C)(C)C)C(=O)NCC(=O)O (stereo unspecified) (Ac-E(OtBu)E(OtBu)[Phe(4-NO2)]K(Boc)K(Boc)G-OH; configuration not given here)", "> 100 µM"]
]}

Hi! What's the reported TGI for CC1(C)COC2(OC1)C1=NS(=O)(=O)CC13CCC2C3(C)C (stereo unspecified) on A549 NSCLC?
> 100 µM

====

TGI: recorded values
# System: SW-620 colon
# experiment: NCI tumour cell line growth inhibition, 48 h

Worked examples follow.
{"columns": ["compound", "system-name", "TGI"],
 "data": [
  ["COC(=O)[C@@]12CCCC(=O)[C@@H]1[C@H]1CCC[C@H]12", "SW-620 colon", "> 100 µM"],
  ["O=c1c2c([nH]c3cc4c(cc13)OCO4)-c1ccccc1C2", "SW-620 colon", "> 100 µM"],
  ["Oc1ccccc1N=Cc1c(O)ccc2ccccc12", "SW-620 colon", "> 100 µM"],
  ["O=C(O)c1c(-c2ccccc2)c(=O)[nH]c2ccccc12", "SW-620 colon", "> 100 µM"],
  ["COc1cc(C2c3cc4c(cc3CC3COC(=O)N32)OCO4)cc(OC)c1OC (stereo not given)", "SW-620 colon", "> 100 µM"],
  ["Cn1c2c(c3ccccc31)C1C(=O)N(c3ccccc3)C(=O)C1CC2 (stereo not given)", "SW-620 colon", "> 303 µM"]
]}

Can you look up the measured TGI of COc1ccc(N=Nc2c(O)ccc3ccccc23)cc1 for me?
> 100 µM

Request the reported TGI associated with Cc1coc2c1[C@@H](O)[C@@]1(C)[C@H](CCC[C@@H]1C)C2
> 100 µM

Could you share which TGI value was measured for CCc1nnc(CC)n1-n1c(Cc2ccccc2)n[nH]c1=O ?
> 100 µM

Would you kindly share the measured TGI for O=C1CC[C@@]2(O)[C@H]3Cc4ccc(-c5cccc(O)c5)c5c4[C@@]2(CCN3CC2CC2)[C@H]1O5 ?
> 55.6 µM

====

Listed here are compounds together with their documented TGI.
# System: HT29 colon
# experiment: NCI tumour cell line growth inhibition, 48 h

Illustrative cases are given below, each with its answer.
{"columns": ["compound", "result"],
 "data": [
  ["Cc1c(C(=O)O)nc(/C=C/C(=O)O)[nH]c1=O", "> 100 µM"],
  ["Cc1nnc(N)nc1/C=C\\c1ccc(N(C)C)cc1", "> 100 µM"],
  ["O=C(/C=C/c1c(O)ccc2ccccc12)c1ccccc1Cl", "> 100 µM"],
  ["Cc1cc(C(=O)NC(C)(C)C)cc(C#Cc2ccc3c4c(oc3c2)C(C)(C)c2cc(NS(C)(=O)=O)ccc2C4=O)n1", "> 100 µM"],
  ["COc1cc(C2C3=C(COC3=O)Oc3cc4c(cc32)OCO4)cc(OC)c1OC (configuration not stated)", "0.0444 µM"]
]}

// returns reported TGI for input Cc1ccc(C(N)=Nc2ccccc2)cc1
> 100 µM

So what does the record say about TGI for CC1CN=C(N(C(=O)Nc2ccccc2)c2ccccc2)S1 (configuration not stated) ?
36.6 µM

Reported TGI for CCOC(=O)c1nc2cc(C(F)(F)F)ccc2nc1Nc1ccc(OC)c(OC)c1 : what is it?
> 100 µM

Which measured TGI value corresponds to COc1ccc2nc3c([N+](=O)[O-])ccc4c3c(c2c1)N(CCCN(C)C)C(=S)N4CCCN(C)C ?
11.2 µM

Entry CSCCC(NC(=O)CNC(=O)C(CC(=O)O)NC(=O)C(NC(=O)C(NC(=O)C(NC(=O)CNC(=O)C(CCC(N)=O)NC(=O)C(CCSC)NC(=O)C(CC(=O)O)NC(=O)C(C)NC(=O)C(C)NC(=O)C(NC(=O)C(CO)NC(=O)C(N)CC(C)C)C(C)O)C(C)C)C(C)C)C(C)O)C(=O)NC(C)C(=O)NC(CO)C(=O)NCC(=O)NC(CC(C)C)C(=O)NC(CC(=O)O)C(=O)NC(CCCCN)C(=O)NC(CC(=O)O)C(=O)NC(Cc1ccc(O)cc1)C(=O)NC(CC(C)C)C(=O)NC(CCCCN)C(=O)N1CCCC1C(=O)NC(CC(=O)O)C(=O)NC(CC(=O)O)C(=O)O (configuration not stated) : reported TGI = ?
> 82.5 µM

# get_value(readout='TGI', item= CC1=CCCC(C)(O)C2CC(CCC3(C)OC3CC1)C(C)C(=O)O2 (configuration not stated) )
> 100 µM

# query: TGI of entry O=C1c2ccccc2C(=O)c2c1ccc(C(Br)Br)c2Cl
3.54 µM

====

# Tested on: T-47D breast
# experiment: NCI tumour cell line growth inhibition, 48 h
# Lookup of reported TGI keyed by entry
Give a bare numeral; the unit µM is implied.

{"columns": ["structure-notation", "display-unit", "TGI"],
 "data": [
  ["Cc1ccc(NCCN2CCCCC2)c2c(=O)c3ccccc3sc12", "µM", 6],
  ["COc1ccc2nc3cccc([N+](=O)[O-])c3c(NCCN(C)C)c2c1", "µM", 0.408],
  ["CCN(CC)CCOc1nc2c3ccc(Cl)cc3nn2c2ccccc12", "µM", 18.8]
]}

If you can, please state the reported TGI value of O=C1/C(=C/c2ccc(O)c(O)c2)COc2ccc(-c3ccccc3)cc21 .
3.61

====

# System: HOP-62 NSCLC
# experiment: NCI tumour cell line growth inhibition, 48 h
quantity-name: TGI

{"columns": ["compound", "quantity-name", "result"],
 "data": [
  ["N/C(=N/N=C/c1cc(Br)cc(Br)c1O)NO", "TGI", "25.9 µM"],
  ["CN1C(=O)N(C)C2C1NN=c1s/c(=C\\c3ccccc3F)c(=O)n12 (stereo not drawn)", "TGI", "> 100 µM"],
  ["Cn1c(=O)c2c3ccccc3c(C(=O)c3ccccc3)n2c2ccccc21", "TGI", "> 100 µM"],
  ["N#Cc1cccc(N2C(=O)c3ccc(C(=O)c4ccc5c(c4)C(=O)N(c4cccc(C#N)c4)C5=O)cc3C2=O)c1", "TGI", "> 100 µM"],
  ["CCC(=O)O[C@H]1CC[C@H]2[C@@H]3CCC4=CC(=O)C=C[C@]4(O)[C@H]3CC[C@]12C", "TGI", "> 100 µM"],
  ["Oc1ccccc1N=Cc1c(O)ccc2ccccc12", "TGI", "97.6 µM"],
  ["NC1CCC[C@H]1O (stereo partly drawn)", "TGI", "> 100 µM"]
]}

Shift focus to the following entry.
# query: TGI of entry C=C(CN(C)C)C(=O)c1ccc(OC2OC(COC(C)=O)C(OC(C)=O)C(OC(C)=O)C2OC(C)=O)cc1 (stereo not drawn)
24.3 µM
